measurement target: T1, purified ALK protein (BLitz, Table 20) (Homo sapiens (Human), UniProt Q9UM73 19-1038, limits assumed)
T1 construct: also called purified ALK proteins
T1 sequence (Q9UM73 19-1038 limits assumed): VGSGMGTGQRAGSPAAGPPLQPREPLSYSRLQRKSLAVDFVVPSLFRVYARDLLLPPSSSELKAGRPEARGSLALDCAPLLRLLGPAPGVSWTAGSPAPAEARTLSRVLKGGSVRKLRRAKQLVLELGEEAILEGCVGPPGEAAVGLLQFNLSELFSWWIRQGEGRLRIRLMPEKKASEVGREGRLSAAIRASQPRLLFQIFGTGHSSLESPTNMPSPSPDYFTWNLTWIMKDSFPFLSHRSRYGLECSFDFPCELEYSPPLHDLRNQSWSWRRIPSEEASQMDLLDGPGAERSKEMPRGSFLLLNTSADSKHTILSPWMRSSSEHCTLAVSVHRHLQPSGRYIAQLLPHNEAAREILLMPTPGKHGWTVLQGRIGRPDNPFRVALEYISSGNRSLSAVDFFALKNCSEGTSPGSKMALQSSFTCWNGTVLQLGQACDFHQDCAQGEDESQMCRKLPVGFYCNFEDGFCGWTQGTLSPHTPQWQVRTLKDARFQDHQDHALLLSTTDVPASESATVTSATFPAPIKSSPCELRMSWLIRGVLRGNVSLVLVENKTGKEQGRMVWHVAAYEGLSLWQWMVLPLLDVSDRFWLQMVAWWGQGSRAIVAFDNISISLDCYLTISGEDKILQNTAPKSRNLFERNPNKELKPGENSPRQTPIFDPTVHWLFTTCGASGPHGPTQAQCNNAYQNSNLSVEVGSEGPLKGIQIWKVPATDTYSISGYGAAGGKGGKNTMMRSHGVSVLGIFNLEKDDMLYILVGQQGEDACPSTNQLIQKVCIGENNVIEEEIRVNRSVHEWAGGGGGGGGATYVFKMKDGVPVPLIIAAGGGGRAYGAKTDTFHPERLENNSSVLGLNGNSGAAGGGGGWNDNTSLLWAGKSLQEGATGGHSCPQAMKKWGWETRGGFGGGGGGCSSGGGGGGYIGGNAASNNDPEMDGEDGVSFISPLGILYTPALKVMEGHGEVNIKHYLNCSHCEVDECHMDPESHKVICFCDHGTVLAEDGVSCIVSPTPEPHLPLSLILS
assay comment: BLI (BLitz), mAb on Protein A tip, purified ALK in solution
pKd: −log10 of the molar value.
Measured pKd, listed per entry for reference.
reported endpoint: pKd

INSERT INTO assay_data (binder, meas_value) VALUES
  ('Ab432 (antibody, V domains shown, humanized) VH: EVQLVQSGAEVKKPGSSVKLSCKASGYTFTSYWMHWVRQAPGQGLEWIGYIKPSSGYTKYNQKFKDKATLTADKSTSTAYMELSSLRSEDTAVYYCARDYYGSSSWFAYWGQGTLVTVSS VL: EIVMTQSPATLSTSPGERATLSCRASQSVSSNLAWYQQKPGQAPRALIYSASYRYSGVPARFSGSGSGTDFTLTISSVEPEDFAVYYCQQYNSYPYMYTFGQGTKLEIK', 6.47),
  ('Ab352 (antibody, V domains shown, humanized) VH: EVQLVQSGPEVKKPGTSVKLSCKASGYTFTSYWMHWVRQARGQRLEWIGYIKPSSGYTKYNQKFKDRATLTADKSTSTAYMELSSLRSEDTAVYYCARDYYGSSSWFAYWGQGTLVTVSS VL: EIVMTQSPAFLSVTPGEKVTITCKASQNVGTNVAWYQQKPDQAPKALIYSASYRYSGVPSRFSGSGSGTDFTLTISSLEAEDAATYYCQQYNSYPYMYTFGQGTKLEIK', 7.11),
  ('Ab372 (antibody, V domains shown, humanized) VH: EVQLVQSGAEVKKPGSSVKLSCKASGYTFTSYWMHWVRQAPGQGLEWIGYIKPSSGYTKYNQKFKDKATLTADKSTSTAYMELSSLRSEDTAVYYCARDYYGSSSWFAYWGQGTLVTVSS VL: DIVMTQSQAFMSVTVGEKVTITCKASQNVGTNVAWYQQKPDQAPKALIYSASYRYSGVPSRFSGSGSGTDFTLTISSLEAEDAATYYCQQYNSYPYMYTFGQGTKLEIK', 6.73);
